// molecules with reported pIC50 on Human Factor XIIa (Homo sapiens), multi-publication
Value format note: pIC50 is -log10 of concentration (mol/L); just state the number.

Below: 3 molecules and their reported pIC50.
* Nc1c2c(nn1C(=O)[C@H]1CCNc3c(Cl)cccc31)COCC2 (single isomer, unassigned) | 7.05
* C[C@@H]1N=C(N2CCN(C(=O)[C@@H](CCCCNS(C)(=O)=O)NC3CCCCC3)[C@H](C(=O)NCc3cccs3)C2)O[C@H]1c1ccccc1 | 8.15
* CC1(C)N=C(N2CCN(C(=O)[C@H](N)CCCCN3CCCCC3)[C@H](C(=O)NCc3cc(Cl)ccc3-n3cnnn3)C2)OC1c1ccccc1 (stereo partly drawn) | 7.26

Measured pIC50, Cc1cc(F)cc2c1NCC[C@@H]2C(=O)n1nc2c(c1N)CNCC2 (single isomer, unassigned) : 7.15

Measured pIC50, Cc1ccc2c(c1)NCCC2C(=O)n1nc2c(c1N)CCCC2 (stereo not drawn) : 6.05

Measured pIC50, CC(C)N[C@H](CCCCN1CCCCC1)C(=O)N1CCN(C2=N[C@@H](C)[C@H](c3ccccc3)O2)C[C@H]1C(=O)NCc1ccc(CN)c(Cl)c1 : 8.77

Measured pIC50, CN(C)CCCC[C@H](C(=O)N1CCN(C(=O)Cc2cccc3c2CCNC3)C[C@H]1C(=O)NCc1cccs1)N(C)C1CCC2(CC1)CCN(Cc1ccccc1)C2 (stereo partly drawn) : 7.92

---

// molecules with reported pIC50 on Human Factor XIIa (Homo sapiens), multi-publication
Value format note: pIC50 is -log10 of concentration (mol/L); just state the number.

Below: 5 molecules and their reported pIC50.
- CS(=O)(=O)N1CCc2c(nn(C(=O)C3CC(=O)Nc4ccc(F)cc43)c2N)C1 (stereo not drawn): 5.40
- Nc1c2c(nn1C(=O)c1cccc3c1ccn3-c1ccccc1)CCCC2 (single isomer, unassigned): 4.76
- Nc1c2c(nn1C(=O)c1cccc3c1CC(=O)N3)CCCC2 (single isomer, unassigned): 6.70
- Nc1c2c(nn1C(=O)c1cccc3[nH]c(Br)cc13)CCCC2 (single isomer, unassigned): 8.00
- CS(=O)(=O)N1CCc2c(nn(C(=O)[C@H]3CCNc4ccccc43)c2N)C1 (single isomer, unassigned): 7.10

Test item Cc1cc2c(C(=O)n3nc4c(c3N)CCN(S(C)(=O)=O)C4)cccc2[nH]1 ; Human Factor XIIa (Homo sapiens); reported pIC50 was 7.70

Test item Nc1c2c(nn1C(=O)C1CCCc3[nH]c(Cl)cc31)CCCC2 (single isomer, unassigned) ; Human Factor XIIa (Homo sapiens); reported pIC50 was 5.10

Test item Nc1c2c(nn1C(=O)c1cccc3[nH]c(C4CC4)cc13)CCCC2 (single isomer, unassigned) ; Human Factor XIIa (Homo sapiens); reported pIC50 was 7.70

Test item CC/C=C/C(=O)Oc1ccc2cc(C(=N)N)sc2c1 ; Human Factor XIIa (Homo sapiens); reported pIC50 was 7.57

---

// molecules with reported pIC50 on Human Factor XIIa (Homo sapiens), multi-publication
pIC50: −log10 of the molar value.

Below: 3 molecules and their reported pIC50.
* Nc1nccc2cc(CNC(=O)c3cc(Cl)cnc3NCc3ccc(N4CCCCC4=O)cc3)ccc12 | 4.40 to 5.00
* Nc1nccc2cc(CNC(=O)c3cc(Cl)c(COCc4ccncc4)s3)ccc12 | 5.00 to 5.52
* Nc1nn(C(=O)[C@H]2CCNc3ccc(Cl)cc32)c2c1C[C@@H](O)CC2 (single isomer, unassigned) | < 4.10

Test item CN(C)CCCC[C@H](C(=O)N1CCN(C2=NC(C)(C)C(c3ccccc3)O2)C[C@H]1C(=O)NCc1ccc(C(N)=O)cc1)N(C)C (stereo partly shown) ; Human Factor XIIa (Homo sapiens); reported pIC50 was 7.27

Test item CN(C)CCCOc1ncc(C(=O)NCc2ccc3c(N)nccc3c2)cc1Cl ; Human Factor XIIa (Homo sapiens); reported pIC50 was 4.40 to 5.00

Test item CC(=O)NCCNCc1sc(C(=O)NCc2ccc3c(N)nccc3c2)cc1Cl ; Human Factor XIIa (Homo sapiens); reported pIC50 was 4.40 to 5.00

Test item CN1CCC(COc2ccc(NCc3ccc4c(N)nccc4c3)cc2CCO)CC1 ; Human Factor XIIa (Homo sapiens); reported pIC50 was > 6.00

Test item CC(=O)N1CCC(Nc2ncc(C(=O)NCc3ccc4c(N)nccc4c3)cc2Cl)CC1 ; Human Factor XIIa (Homo sapiens); reported pIC50 was 4.40 to 5.00

---

// compounds with reported pIC50 on UniProt:P00748, multi-publication
pIC50: −log10 of the molar value.

Below: 5 compounds and their reported pIC50.
* CN1CCC(Oc2cncc(NCc3ccc4c(N)nccc4c3)c2)CC1 | 5.52 to 6.00
* Nc1c2c(nn1C(=O)[C@H]1CCCc3[nH]c(Cl)cc31)CC[C@@H](O)C2 (single isomer, unassigned) | 5.85
* Nc1c2c(nn1C(=O)c1ccnc3cc(Cl)ccc13)CCCC2 | 5.60
* Nc1c2c(nn1C(=O)C1CCNc3ccc(F)cc31)CCC(F)(F)C2 (single isomer, unassigned) | < 4.10
* CN1CCC(CNc2nccnc2C(=O)Nc2cccc3[nH]cc(Cl)c23)CC1 | 4.40 to 5.00

Test item CN1CCN(CCCNc2ncc(C(=O)NCc3ccc4c(N)nccc4c3)cc2Cl)CC1 ; UniProt:P00748; reported pIC50 was 5.00 to 5.52

Test item Cc1ccc2cc(Cn3ncc(C(=O)NCc4c(C)cc(CN)cc4C)c3C(F)(F)F)ccc2n1 ; UniProt:P00748; reported pIC50 was < 4.40

Test item Nc1nccc2cc(CNC(=O)c3cc(Cl)c(CNCc4ccc(N5CCCCC5=O)cc4)s3)ccc12 ; UniProt:P00748; reported pIC50 was 4.40 to 5.00

Test item Nc1nccc2cc(CNC(=O)c3cccc(Cl)c3)ccc12 ; UniProt:P00748; reported pIC50 was 4.40 to 5.00

Test item Cc1ccnc(NCC2CCN(C)CC2)c1C(=O)NCc1ccc2c(N)nccc2c1 ; UniProt:P00748; reported pIC50 was 4.40 to 5.00

Test item CN(C)CCCC[C@H](C(=O)N1CCN(C2=NC(C)(C)C(c3ccccc3)O2)C[C@H]1C(=O)NCc1cc2cnccc2s1)N(C)C (stereo partly shown) ; UniProt:P00748; reported pIC50 was 7.36

Test item CCOc1ccc(C[C@@H](NC(=O)/C=C/c2ccccc2)C(=O)N[C@@H](Cc2ccccc2)C(=O)NCc2ccc(CN)cc2)cc1 ; UniProt:P00748; reported pIC50 was < 5.00

Test item Nc1nccc2cc(CNC(=O)c3cc(Cl)c(CNCCN4CCOCC4)s3)ccc12 ; UniProt:P00748; reported pIC50 was 4.40 to 5.00

Test item Nc1nccc2cc(CNC(=O)c3cc(Cl)c(CN4CC(O)C4)s3)ccc12 ; UniProt:P00748; reported pIC50 was 4.40 to 5.00

Test item Cc1cc2c(n1S(C)(=O)=O)CCCC2C(=O)n1nc2c(c1N)CCCC2 (stereo not shown) ; UniProt:P00748; reported pIC50 was 6.52

Test item CN1CCC(CNC(=O)c2ccc(NCc3ccc4c(N)nccc4c3)nc2)CC1 ; UniProt:P00748; reported pIC50 was 5.00 to 5.52

Test item Nc1nccc2cc(CNC(=O)c3cc(Cl)c(CNCc4ccc(CN5CCCC5=O)cc4)s3)ccc12 ; UniProt:P00748; reported pIC50 was 5.00 to 5.52

Test item Nc1nccc2cc(CNC(=O)c3cc(Cl)c(CN4CC[C@H](Nc5cccnc5)C4)s3)ccc12 ; UniProt:P00748; reported pIC50 was 4.40 to 5.00

Test item CS(=O)(=O)N1CCN(Cc2sc(C(=O)NCc3ccc4c(N)nccc4c3)cc2Cl)CC1 ; UniProt:P00748; reported pIC50 was 4.40 to 5.00

Test item CN1CCCN(c2ncc(Cl)cc2C(=O)NCc2ccc3c(N)nccc3c2)CC1 ; UniProt:P00748; reported pIC50 was 4.40 to 5.00

Test item Cc1cccc2c1NCC[C@H]2C(=O)n1nc2c(c1N)CCN(S(=O)(=O)C1CCC1)C2 (single isomer, unassigned) ; UniProt:P00748; reported pIC50 was 4.46

Test item CN(C)CCCOc1cccc(CN(C)Cc2sc(C(=O)NCc3ccc4c(N)nccc4c3)cc2Cl)c1 ; UniProt:P00748; reported pIC50 was 5.00 to 5.52

---

// compounds with reported pIC50 on Human Factor XIIa (Homo sapiens), multi-publication
pIC50: −log10 of the molar value.

Below: 2 compounds and their reported pIC50.
* CNC(=O)N1CCc2c(c(N)nn2C(=O)C2CCNc3ccccc32)C1 (stereo not drawn) | 5.82
* CN(C)CCOc1ncc(C(=O)NCc2ccc3c(N)nccc3c2)cc1Cl | 4.40 to 5.00

# ---- query compound ----
Test item CCn1c(C(=O)NCc2ccc3c(N)nccc3c2)cc(C)c1CN1CCN(c2ccncc2)CC1 ; Human Factor XIIa (Homo sapiens); reported pIC50 was 4.40 to 5.00
